Data provenance: PubChem BioAssay (Tox21)

- assayedTarget: Nuclear receptor subfamily 1 group I member 3 (Homo sapiens) (UniProt Q14994)
- Sequence (Q14994 whole entry, looked up): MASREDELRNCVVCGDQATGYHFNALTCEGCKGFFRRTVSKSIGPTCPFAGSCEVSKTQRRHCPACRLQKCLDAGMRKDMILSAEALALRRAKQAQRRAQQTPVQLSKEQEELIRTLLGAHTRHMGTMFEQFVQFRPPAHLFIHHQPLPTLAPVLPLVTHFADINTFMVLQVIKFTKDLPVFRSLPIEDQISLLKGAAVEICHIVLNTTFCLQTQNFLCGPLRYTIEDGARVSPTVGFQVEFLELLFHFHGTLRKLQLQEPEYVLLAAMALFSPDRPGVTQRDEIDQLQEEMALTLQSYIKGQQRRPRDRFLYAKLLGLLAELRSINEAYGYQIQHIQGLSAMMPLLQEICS
- assayComment: qHTS assay to identify small molecule agonists of the constitutive androstane receptor (CAR) signaling pathway (AID 1224839);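 note: HepG2 cells stably carrying human CAR and a CYP2B6 luciferase reporter; nearly all actives have a fitted effect of over 15% in size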
- conditionSummary: HepG2 hCAR CYP2B6-luciferase, agonist mode, 24 h; series mostly up to 92.4 µM
Results filed as inconclusive are left out. Active and inactive are the calls of the source. Calls come from the whole dose curve; as a rule, active = well fitted activation curve with a large enough effect in the repeat runs; inconclusive = weak or mixed curves; inactive = no such curve, though single readings can be large or run the other way.
Give your call using only these classes: 1 (yes) (active), 0 (no) (inactive)

COc1cc(CC#N)cc(OC)c1OC = 0 (no)
CC(C)(C)NCC(O)c1cc(Cl)c(N)c(C(F)(F)F)c1 (centres undefined) = 0 (no)
CC(C)CCON=O = 0 (no)

Each compound tested received a call. Report the one for CCOP(=O)(SC(C)CC)N1CCSC1=O (centres undefined) .
0 (no)

Recorded test call requested for COC(=O)Cc1ccccc1
0 (no)

Dear colleague, could you share the recorded outcome for CCC[N+](CCC)(CCC)CCC when you have a moment?
0 (no)

# outcome recorded in this test, key = CC(C)(C)N(NC(=O)c1ccc(Cl)cc1)C(=O)c1ccccc1
0 (no)

Dear all, I need the recorded test outcome for CC(C)(C)OOC(C)(C)CCC(C)(C)OOC(C)(C)C , thank you.
0 (no)
